Where these numbers come from: the supplement of paper PMC4894684

system: HFF; assay: uninfected host cell viability relative to vehicle control; higher = less host cell toxicity; conditions: 5 µM; 72 h; oxygen 21 %
Structures can show the parent of a compound that is named as a salt. The whole screen tested about 1,000 compounds, of which about 15 (2%) showed an effect of 50% or more. This excerpt belongs to a sample that is enriched for strong results.
uninfected host cell viability vs 80%: less than gives t; not less than gives f.

Molecule: CC(C)NCC(O)c1ccc(N)c(C#N)c1 (configuration not stated) [Cimaterol]
Category: f
--
Molecule: O=C1NC(=O)c2c1c1c3ccccc3n3c1c1c2c2ccccc2n1[C@H]1CC[C@@H]3O1
Category: t
--
Molecule: NCCc1c[nH]c2ccc(C(N)=O)cc12 [5-Carboxamidotryptamine maleate]
Category: f
--
Molecule: O=C1NC(=O)c2c1c1c3ccccc3[nH]c1c1[nH]c3ccccc3c21 [Arcyriaflavin A]
Category: f
--
Molecule: NC1(c2ccccc2Cl)CCCCC1=O (configuration not stated) [Norketamine hydrochloride]
Category: f
--
Molecule: C[C@@]12C(=O)OC(=O)[C@]1(C)[C@H]1CC[C@@H]2O1 [Cantharidin]
Category: t
--
Molecule: N[C@H](C(=O)O)c1cc(O)no1 [Ibotenic acid]
Category: f
--
Molecule: Cc1[nH]c2ccc(Cl)cc2c1C1=CCNCC1
Category: t
--
Molecule: CCOC(=O)c1ncc2[nH]c3ccc(OCc4ccccc4)cc3c2c1COC
Category: f
--
Molecule: C[C@@H](N)Cc1cnc[nH]1 [(R)-(-)- α-Methylhistamine dihydrobromide]
Category: f
--
Molecule: CN1Cc2ccccc2[C@@H]2c3cccc4[nH]cc(c34)C[C@H]21
Category: f
--
Molecule: c1ccc2c(c1)[I+]c1ccccc1-2 [Diphenyleneiodonium chloride]
Category: t
--
Molecule: CC(C)C[C@@H](N)C1(c2ccc(Cl)cc2)CCC1
Category: f
--
Molecule: C[C@H]1CCC/C=C/[C@@H]2C[C@H](O)C[C@H]2[C@H](O)/C=C/C(=O)O1 [Brefeldin A]
Category: t
--
Molecule: N#Cc1ccc(N2CCN(C(=O)COc3ccc4[nH]cc(CCN)c4c3)CC2)cc1 [Donitriptan hydrochloride]
Category: f
